tgt: human APJ receptor (Homo sapiens (Human))
procedure_details: [35S]GTPγS binding assay on membranes from CHO cells stably expressing human APJ receptor
Type: biochemical
assay_context: [35S]GTPγS SPA, read-out: Activity hAPJ SPA EC50 IP
Could you mark each record True if its EC50 falls strictly under 50 nM, and False if it equals or exceeds it?

Is it true that EC50 reported for COc1ncnc(OC)c1-n1c(NS(=O)(=O)[C@@H](C)[C@H](OC)c2ncc(Cl)cn2)nnc1[C@H]1CC[C@@H](C(F)F)CC1 (single isomer, unassigned) [Example 144.0] is less than 50 nM?
False

Could you please tell me whether EC50 recorded for CO[C@H](c1ncc(Cl)cn1)[C@H](C)S(=O)(=O)Nc1nnc([C@H]2C[C@H](CO)C2)n1C(C)C (single isomer, unassigned) [Example 137.0] is less than 50 nM?
False

Problem: For the molecule C=C1CC(c2nnc(NS(=O)(=O)[C@@H](C)[C@H](OC)c3ncc(Cl)cn3)n2-c2c(OC)ncnc2OC)C1 , is EC50 under 50 nM?
True

Decide: EC50 of COc1ncnc(OC)c1-n1c(NS(=O)(=O)[C@@H](C)[C@H](OC)c2ncc(Cl)cn2)nnc1[C@H]1C[C@@H](F)C1 (single isomer, unassigned) [Example 163.0] strictly below 50 nM?
True

Dear colleague, could you confirm whether EC50 of COc1cccc(OC)c1-n1c(NS(=O)(=O)[C@@H](C)[C@H](OC)c2ncc(Cl)cn2)nnc1C1CC2(CC2)C1 falls below 50 nM? Thanks.
True

* * *

tgt: human APJ receptor (Homo sapiens (Human))
procedure_details: [35S]GTPγS binding assay on membranes from CHO cells stably expressing human APJ receptor
Type: biochemical
assay_context: Activity hAPJ SPA EC50 IP, [35S]GTPγS SPA
measurement_name: EC50 (nM)
Write the answer as a number in nM, unit excluded.

Please list EC50 recorded for the compound COc1cccc(OC)c1-n1c(NS(=O)(=O)[C@@H](C)[C@H](OC)c2ncc(C)cn2)nnc1C1CC1
22

* * *

tgt: human APJ receptor (Homo sapiens (Human), UniProt P35414)
Sequence (P35414 whole entry): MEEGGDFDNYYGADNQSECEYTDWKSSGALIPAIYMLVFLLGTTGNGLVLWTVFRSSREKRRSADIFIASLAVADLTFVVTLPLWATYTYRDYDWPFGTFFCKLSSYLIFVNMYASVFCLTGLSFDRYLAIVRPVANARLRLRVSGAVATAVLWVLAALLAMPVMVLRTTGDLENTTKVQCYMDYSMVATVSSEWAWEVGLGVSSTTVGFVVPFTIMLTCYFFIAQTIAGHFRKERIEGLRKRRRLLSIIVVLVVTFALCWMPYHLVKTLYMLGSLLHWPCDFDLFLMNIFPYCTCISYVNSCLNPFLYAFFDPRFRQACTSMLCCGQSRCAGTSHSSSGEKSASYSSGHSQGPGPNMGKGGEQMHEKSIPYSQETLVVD
procedure_details: [35S]GTPγS binding assay on membranes from CHO cells stably expressing human APJ receptor
Assay type: biochemical
assay_context: [35S]GTPγS SPA, read-out: Activity hAPJ SPA EC50 IP
measurement_name: pEC50
# log scale: pEC50 equals minus log10 of the concentration in mol/L

# assay system human APJ receptor (Homo sapiens (Human), UniProt P35414): give pEC50 of COc1cccc(OC)c1-n1c(NS(=O)(=O)[C@@H](C)[C@@H](OC(C)C)c2ncc(C)cn2)nnc1[C@H]1C[C@@](C)(O)C1 (single isomer, unassigned) [Example 231.0]
6.66

Report value: pEC50, system: human APJ receptor (Homo sapiens (Human), UniProt P35414), molecule: COCC(COC)n1c(NS(=O)(=O)[C@@H](C)[C@H](OC)c2ncc(Cl)cn2)nnc1C1CCC1 [Example 95.0]
7.37

Using human APJ receptor (Homo sapiens (Human), UniProt P35414) as the test system, report measured pEC50 of COc1cccc(OC)c1-n1c(NS(=O)(=O)[C@@H](C)[C@H](OC)c2ncc(Cl)cn2)nnc1[C@H]1C[C@H](OC)C1 (single isomer, unassigned) [Example 155.0] .
8.03

Give pEC50 for this entry on human APJ receptor (Homo sapiens (Human), UniProt P35414): COc1cccc(OC)c1-n1c(NS(=O)(=O)[C@@H](C)[C@H](OC)c2ncc(Cl)cn2)nnc1[C@H]1CCC1(F)F (single isomer, unassigned) [Example 160.0]
7.57

// fetch pEC50 for COc1cccc(OC)c1-n1c(NS(=O)(=O)[C@@H](C)[C@H](C)c2ncc(Cl)cn2)nnc1C1(c2ccccn2)CC1 [Example 125.0] ; system: human APJ receptor (Homo sapiens (Human), UniProt P35414)
6.40

Answer with pEC50 of COc1ncnc(OC)c1-n1c(NS(=O)(=O)[C@@H](C)[C@H](OC)c2ncc(Cl)cn2)nnc1[C@H]1CC[C@@H]1C (single isomer, unassigned) [Example 187.0] measured for human APJ receptor (Homo sapiens (Human), UniProt P35414).
8.06

Supply pEC50 measured with human APJ receptor (Homo sapiens (Human), UniProt P35414) for COc1ncnc(OC)c1-n1c(NS(=O)(=O)[C@@H](C)[C@H](OC)c2ncc(Cl)cn2)nnc1[C@H]1C[C@@H](Cl)C1 (single isomer, unassigned) [Example 165.0] .
8.01

State, for human APJ receptor (Homo sapiens (Human), UniProt P35414), measured pEC50 of the molecule listed here: COc1ncnc(OC)c1-n1c(NS(=O)(=O)[C@@H](C)[C@H](C)c2ncc(C)cn2)nnc1C1CCCC1 [Example 18.0]
8.68

For human APJ receptor (Homo sapiens (Human), UniProt P35414), give pEC50 of the listed molecule: COc1ncnc(OC)c1-n1c(NS(=O)(=O)[C@@H](C)[C@H](OC)c2ncc(Cl)cn2)nnc1[C@H]1CC[C@H]1C (single isomer, unassigned) [Example 188.0]
7.85

Write down the reported pEC50 (system: human APJ receptor (Homo sapiens (Human), UniProt P35414)) of COc1ncnc(OC)c1-n1c(NS(=O)(=O)[C@@H](C)[C@H](C)c2ncc(C)cn2)nnc1C1CCCCC1 [Example 5.0]
8.03

Give reported pEC50 for COc1ncnc(OC)c1-n1c(NS(=O)(=O)[C@@H](C)[C@H](OC)c2ncc(Cl)cn2)nnc1C1CCC1 [Example 7.0] (human APJ receptor (Homo sapiens (Human), UniProt P35414))
7.18

Provide pEC50, recorded with human APJ receptor (Homo sapiens (Human), UniProt P35414), of COc1cccc(OC)c1-n1c(NS(=O)(=O)[C@@H](C)[C@H](OC)c2ncc(Cl)cn2)nnc1[C@H]1C[C@H](F)C1 (single isomer, unassigned) [Example 151.0]
8.27
